For each entry below, report its Emax value.
molecular target: sGC α1/β1 heterodimer (Homo sapiens, UniProt Q02108+Q02153); construct: expressed in transfected cells; host or cells: CHO-K1 (clone #7, CHO-K1/sGC); experiment: Cell-based sGC functional assay (CASA assay): cGMP generation in CHO-K1/sGC cells, HTRF detection; settings: CHO-K1, percent activation relative to standard Compound A in CHO-K1/sGC cells; read-out: % Act.
Sequence (Q02108 whole entry): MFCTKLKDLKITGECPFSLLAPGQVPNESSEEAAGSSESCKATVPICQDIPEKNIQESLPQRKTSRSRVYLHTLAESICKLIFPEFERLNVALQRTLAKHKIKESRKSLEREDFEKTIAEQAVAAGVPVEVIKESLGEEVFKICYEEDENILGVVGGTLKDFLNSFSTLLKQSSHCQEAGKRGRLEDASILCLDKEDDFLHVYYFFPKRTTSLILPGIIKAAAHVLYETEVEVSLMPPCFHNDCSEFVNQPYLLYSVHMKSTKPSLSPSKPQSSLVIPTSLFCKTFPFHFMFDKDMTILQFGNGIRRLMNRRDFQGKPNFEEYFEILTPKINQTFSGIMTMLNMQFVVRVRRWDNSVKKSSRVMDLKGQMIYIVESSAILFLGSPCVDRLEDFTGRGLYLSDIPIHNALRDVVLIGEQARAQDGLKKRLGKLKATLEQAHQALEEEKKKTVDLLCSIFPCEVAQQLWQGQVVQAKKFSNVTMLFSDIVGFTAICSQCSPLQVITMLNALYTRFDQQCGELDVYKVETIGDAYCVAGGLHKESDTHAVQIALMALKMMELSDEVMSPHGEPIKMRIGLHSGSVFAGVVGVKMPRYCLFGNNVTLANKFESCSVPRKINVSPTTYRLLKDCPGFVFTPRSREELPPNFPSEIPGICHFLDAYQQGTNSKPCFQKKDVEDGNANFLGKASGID
Sequence (Q02153 whole entry): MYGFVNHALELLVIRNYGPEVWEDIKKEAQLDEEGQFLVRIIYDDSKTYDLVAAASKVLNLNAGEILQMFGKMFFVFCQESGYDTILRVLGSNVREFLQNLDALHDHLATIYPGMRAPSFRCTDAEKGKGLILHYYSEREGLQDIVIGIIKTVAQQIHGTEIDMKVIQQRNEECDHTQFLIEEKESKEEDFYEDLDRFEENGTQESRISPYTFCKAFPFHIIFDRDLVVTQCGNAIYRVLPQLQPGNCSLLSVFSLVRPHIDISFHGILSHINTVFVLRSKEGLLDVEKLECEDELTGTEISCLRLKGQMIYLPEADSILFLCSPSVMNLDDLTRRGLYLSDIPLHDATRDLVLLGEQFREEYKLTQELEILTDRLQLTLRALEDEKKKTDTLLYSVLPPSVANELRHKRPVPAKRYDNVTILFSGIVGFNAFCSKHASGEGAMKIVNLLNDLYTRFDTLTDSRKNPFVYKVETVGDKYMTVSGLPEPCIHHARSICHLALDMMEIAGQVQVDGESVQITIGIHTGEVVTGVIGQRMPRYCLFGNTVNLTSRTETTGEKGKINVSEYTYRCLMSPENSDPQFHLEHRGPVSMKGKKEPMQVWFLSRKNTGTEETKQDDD
The response must be a number in % with no trailing unit.

Query (compound): CC1(c2ccc(OC(F)(F)F)cc2)C(=O)Nc2nc(-c3cn4ccnc4cn3)nc(N)c21 (stereo not shown) [Example 145A] ; field requested: Emax
96

Query (compound): CC1(c2ccc(F)cc2F)C(=O)Nc2nc(-c3cn4ccnc4c(CCC(F)(F)F)n3)nc(N)c21 (stereo not shown) [Example 180A] ; field requested: Emax
115

Query (compound): Nc1nc(-c2cn3ccnc3c(CCCC(F)(F)F)n2)nc2c1C(c1ccc(C(F)(F)F)cn1)(C1CC1)C(=O)N2 (stereo not shown) [Example 219A] ; field requested: Emax
124

Query (compound): CC1(c2ccc(Cl)cc2)C(=O)Nc2nc(-c3cn4ccnc4cn3)nc(N)c21 (stereo not shown) [Example 144A] ; field requested: Emax
117

Query (compound): Cc1ccc(C2(C)C(=O)Nc3nc(-c4cn5ccnc5c(CCC(F)(F)C(F)(F)F)n4)nc(N)c32)nn1 (stereo not shown) [Example 252B] ; field requested: Emax
121

Query (compound): CCCCc1nc(-c2nc(N)c3c(n2)NC(=O)C3(C)c2ccc(F)cn2)cn2c(C)cnc12 (stereo not shown) [Example 165B] ; field requested: Emax
81

Query (compound): CC1(c2ccccn2)C(=O)Nc2nc(-c3cn4ccnc4c(CCC(F)(F)C(F)(F)F)n3)nc(N)c21 (stereo not shown) [Example 226A] ; field requested: Emax
124
